# Protocol summary: Selectivity index, ratio of CC50 for human HepG2.2.15 cells to IC50 for HBV infected in human HepG2.2.15 cells assessed as inhibition of viral e antigen production
# Assay type: functional
Parameter Ratio CC50/IC50: see the listing below.

| Molecule | Ratio CC50/IC50 |
| --- | --- |
| CCCC(=O)O[C@@H]1[C@@H](O)C[C@@H]2C(=CC[C@@H]3[C@@]2(C)C(=O)C[C@]2(C)[C@@H]([C@@](C)(O)C(=O)CCC(C)(C)OC(C)=O)[C@H](O)C[C@@]32C)C1(C)C | <1 |
| CCOCC(=O)O[C@H]1C[C@@H]2C(=CC[C@@H]3[C@@]2(C)C(=O)C[C@]2(C)[C@@H]([C@@](C)(O)C(=O)CCC(C)(C)O)[C@H](OC(=O)COCC)C[C@@]32C)C(C)(C)[C@@H]1OC(=O)COCC | <1 |
| CCCC(=O)O[C@H]1C[C@@H]2C(=CC[C@@H]3[C@@]2(C)C(=O)C[C@]2(C)[C@@H]([C@@](C)(O)C(=O)CCC(C)(C)OC(C)=O)[C@H](O)C[C@@]32C)C(C)(C)[C@@H]1O | <1 |
| CC(=O)OC(C)(C)CCC(=O)[C@](C)(O)[C@H]1[C@H](O)C[C@@]2(C)[C@@H]3C[C@@H](O)[C@]4(OC(=O)c5cccc(Cl)c5)[C@@H](C[C@H](O)[C@@H](O)C4(C)C)[C@]3(C)C(=O)C[C@]12C | 11.9 |
| CCC(=O)O[C@@H]1[C@@H](O)C[C@@H]2C(=CC[C@@H]3[C@@]2(C)C(=O)C[C@]2(C)[C@@H]([C@@](C)(O)C(=O)CCC(C)(C)OC(C)=O)[C@H](O)C[C@@]32C)C1(C)C | 5.9 |
| CC(=O)O[C@H]1C[C@H]2[C@]3(C)C(=O)C[C@]4(C)[C@@H]([C@@](C)(O)C(=O)CCC(C)(C)OC(C)=O)[C@H](OC(C)=O)C[C@@]4(C)[C@@H]3C[C@@H](O)[C@@]2(OC(=O)c2cccc(Cl)c2)C(C)(C)[C@@H]1OC(C)=O | >3.2 |
| C[C@H](Cn1cnc2c(N)ncnc21)OCP(=O)(O)O [TENOFOVIR ANHYDROUS] | >1.5 |
| CC(=O)O[C@@H]1[C@@H](O)C[C@@H]2C(=CC[C@@H]3[C@@]2(C)C(=O)C[C@]2(C)[C@@H]([C@@](C)(O)C(=O)CCC(C)(C)OC(C)=O)[C@H](O)C[C@@]32C)C1(C)C | <1 |
| CC(C)(O)CCC(=O)[C@](C)(O)[C@H]1[C@H](O)C[C@@]2(C)[C@@H]3CC=C4[C@@H](C[C@H](O)[C@@H](O)C4(C)C)[C@]3(C)C(=O)C[C@]12C | <1 |
| COCC(=O)O[C@H]1C[C@H]2[C@]3(C)C(=O)C[C@]4(C)[C@@H]([C@@](C)(O)C(=O)CCC(C)(C)OC(C)=O)[C@H](OC(=O)COC)C[C@@]4(C)[C@@H]3C[C@H]3O[C@]32C(C)(C)[C@@H]1OC(=O)COC | >1.9 |
| CCC(=O)O[C@H]1C[C@@H]2C(=CC[C@@H]3[C@@]2(C)C(=O)C[C@]2(C)[C@@H]([C@@](C)(O)C(=O)CCC(C)(C)OC(C)=O)[C@H](O)C[C@@]32C)C(C)(C)[C@@H]1O | 8.7 |
| CCC(=O)O[C@H]1C[C@@H]2C(=CC[C@@H]3[C@@]2(C)C(=O)C[C@]2(C)[C@@H]([C@@](C)(O)C(=O)CCC(C)(C)OC(C)=O)[C@H](O)C[C@@]32C)C(C)(C)[C@@H]1OC(=O)CC | >1 |
| CCCC(=O)O[C@H]1C[C@H]2[C@]3(C)C(=O)C[C@]4(C)[C@@H]([C@@](C)(O)C(=O)CCC(C)(C)OC(C)=O)[C@H](OC(=O)CCC)C[C@@]4(C)[C@@H]3C[C@H]3O[C@]32C(C)(C)[C@@H]1OC(=O)CCC | >2 |
| CC(=O)O[C@H]1C[C@@H]2C(=CC[C@@H]3[C@@]2(C)C(=O)C[C@]2(C)[C@@H]([C@@](C)(O)C(=O)CCC(C)(C)OC(C)=O)[C@H](O)C[C@@]32C)C(C)(C)[C@@H]1OC(C)=O | 11.7 |
| CC(=O)OC(C)(C)CCC(=O)[C@](C)(O)[C@H]1[C@H](O)C[C@@]2(C)[C@@H]3CC=C4[C@@H](C[C@H](O)[C@@H](O)C4(C)C)[C@]3(C)C(=O)C[C@]12C | <1 |
